Molecular target: T1, human Trop-2 expressed on cell surface (human, UniProt P09758 27-323)
T1 construct: whole, on cells; also called cell surface Trop-2
T1 sequence (looked up): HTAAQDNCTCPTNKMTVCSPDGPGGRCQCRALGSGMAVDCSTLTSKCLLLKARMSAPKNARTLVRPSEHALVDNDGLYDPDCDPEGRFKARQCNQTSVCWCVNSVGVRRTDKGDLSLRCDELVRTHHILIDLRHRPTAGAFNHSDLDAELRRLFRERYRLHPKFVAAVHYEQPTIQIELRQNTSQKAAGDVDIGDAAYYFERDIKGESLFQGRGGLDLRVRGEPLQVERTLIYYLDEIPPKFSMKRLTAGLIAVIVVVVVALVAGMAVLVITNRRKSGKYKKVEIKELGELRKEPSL
Assay: flow cytometry, MDA-MB-231-GFP cells
Protocol: Cells were then resuspended in FACS buffer (1×DPBS/1% FBS) at 10⁶/ml concentration. One hundred microliter (100 μl) of cells were aliquoted into a single well in 96 well plates. […] After washing with FACS buffer, stained cells were resuspended at diluted 7-ADD (Biolegend, used at 1:100 dilution) and analyzed on Guava 11HT or 5HT (Luminex). Data was analyzed using Flowjo software. EC₅₀ values were calculated using GraphPad Prism. […]
pEC50: −log10 of the molar value.

# binder, pEC50
measured = [
    ("74F11/15F5 (antibody, human IgG1, V domains shown, LEM construct: VH + rabbit IgG CH1 + human IgG1 CH2-CH3) VH: QEQLKESGGGLVQPGGSLKLSCKASGFDFNNYGMSWVRQAPGKGLEWIAYIYPAFHNTYYANWVNGRFTISSDNAQNTVDLQLNSLTAADTATYFCARDAGSTDYNFNLWGPGTLVTVSS VL: DVVMTQTPASVEAAVGGTVTIKCQASEDIERYLAWYQQKPGQPPKLLIYEASKLPSGVSSRFSGSGYGTEFTLTISGVECADAATYYCQQALTIGYVDNPFGGGSEVVVK", 10.70),
    ("5D4 (antibody, V domains shown, Rabbit-derived clone; LEM construct: VH + rabbit IgG CH1 + human IgG1 CH2-CH3) VH: QQLEESGGGLVKPEGSLTLTCKGSGFDFSGTYWMWWVRQAPGKGLEWIACIYVGSGSSTYYASWAKGRFTISSTSSTAVTLQATSLTAADTATYFCARGATNNVFMNYFNLWGPGTLVTVSS VL: FEMTQTPSSVSEPVGGTVTIKCQASEDISSNLGWYQQKPGQPPKLLIYGASTLASGVPSRFKGSGSGTEFTLTISDLECADAATYYCQTSYYIDDGVNGFGGGTEVVVK", 11.00),
    ("63H3 (antibody, V domains shown, Rabbit-derived clone; LEM construct: VH + rabbit IgG CH1 + human IgG1 CH2-CH3) VH: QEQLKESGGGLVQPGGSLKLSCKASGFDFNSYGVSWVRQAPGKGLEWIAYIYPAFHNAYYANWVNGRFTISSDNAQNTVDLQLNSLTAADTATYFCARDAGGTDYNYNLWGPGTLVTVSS VL: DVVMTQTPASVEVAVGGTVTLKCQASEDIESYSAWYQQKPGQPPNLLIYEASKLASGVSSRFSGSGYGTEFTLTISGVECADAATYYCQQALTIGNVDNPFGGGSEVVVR", 10.70),
]
